The reported numbers originate from patent US9198913B2.

# assay_name: In vivo pharmacokinetics in mice
# condition_info: mouse, in vivo; CD-1 mice, oral, 40 mg/kg, plasma; read-out: t½ (h) plasma (converted)
// class assignment uses half-life with these ranges: bottom bin (below 10 h), middle bin (10 h to below 20 h), top bin (20 h or more)

compound: O=[N+]([O-])c1cn2c(n1)OC[C@@H](OCc1ccc(C#Cc3ccc(OC(F)(F)F)cc3)cn1)C2
classification: top bin
//
compound: O=[N+]([O-])c1cn2c(n1)OC[C@@H](OCc1ccc(-c3ccc(OC(F)(F)F)c(F)c3)nc1)C2
classification: middle bin
//
compound: O=[N+]([O-])c1cn2c(n1)OC[C@@H](OCc1ccc(OC(F)(F)F)cc1)C2 [PA-824, reference compound]
classification: bottom bin
//
compound: Cn1nc(-c2ccc(OC(F)(F)F)cc2)cc1CO[C@@H]1COc2nc([N+](=O)[O-])cn2C1
classification: bottom bin
//
compound: O=[N+]([O-])c1cn2c(n1)OC[C@@H](OCc1cnc(-c3ccc(OC(F)(F)F)cc3)nc1)C2
classification: top bin
//
compound: O=[N+]([O-])c1cn2c(n1)OC[C@@H](OCc1ccc(-c3ccc(C(F)(F)F)cn3)cc1F)C2
classification: middle bin
//
compound: O=[N+]([O-])c1cn2c(n1)OC[C@@H](OCc1ccc(-c3ccc(OC(F)(F)F)c(Cl)c3)nc1)C2
classification: top bin
//
compound: O=[N+]([O-])c1cn2c(n1)OC[C@@H](Oc1ccc(-c3ccc(OC(F)(F)F)cc3)cc1)C2
classification: top bin
//
compound: O=[N+]([O-])c1cn2c(n1)OC[C@@H](OCc1ccc(-c3ccc(C(F)(F)F)nc3)cc1F)C2
classification: bottom bin
//
compound: O=[N+]([O-])c1cn2c(n1)OC[C@@H](OCc1ccn(-c3ccc(OC(F)(F)F)cc3)n1)C2
classification: bottom bin
//
compound: O=[N+]([O-])c1cn2c(n1)OC[C@@H](OCc1ccc(-c3ccc(OC(F)(F)F)cc3)cc1F)C2
classification: top bin

###

# assay_name: In vivo pharmacokinetics in mice
# condition_info: mouse, lung/plasma; CD-1 mice, oral, 40 mg/kg; read-out: AUC ratio (lung/plasma)
observable: Kp

compound: O=[N+]([O-])c1cn2c(n1)OC[C@@H](OCc1ccn(-c3ccc(OC(F)(F)F)cc3)n1)C2
value_observed: 3.5
--
compound: O=[N+]([O-])c1cn2c(n1)OC[C@@H](OCC#Cc1ccc(-c3ccc(OC(F)(F)F)cc3)cc1)C2
value_observed: 1.4
--
compound: O=[N+]([O-])c1cn2c(n1)OC[C@@H](OCc1ccc(-c3ccc(OC(F)(F)F)c(F)c3)cn1)C2
value_observed: 1.1
--
compound: O=[N+]([O-])c1cn2c(n1)OC[C@@H](OCc1ccc(-c3ccc(OC(F)(F)F)cc3Cl)cc1)C2
value_observed: 17
--
compound: O=[N+]([O-])c1cn2c(n1)OC[C@@H](OCc1ccc(-c3ccc(OC(F)(F)F)c(F)c3)nc1)C2
value_observed: 1.4
--
compound: O=[N+]([O-])c1cn2c(n1)OC[C@@H](OCc1ccc(-c3ccc(C(F)(F)F)cn3)cc1)C2
value_observed: 3.3
--
compound: O=[N+]([O-])c1cn2c(n1)OC[C@@H](OCc1ccc(-c3ccc(C(F)(F)F)nc3)cc1F)C2
value_observed: 2.5
--
compound: O=[N+]([O-])c1cn2c(n1)OC[C@@H](Oc1ccc(-c3ccc(OC(F)(F)F)cc3)cc1)C2
value_observed: 3.4
--
compound: O=[N+]([O-])c1cn2c(n1)OC[C@@H](OCc1ccc(OC(F)(F)F)cc1)C2 [PA-824, reference compound]
value_observed: 3.8
--
compound: O=[N+]([O-])c1cn2c(n1)OC[C@@H](OCc1ccc(-c3ccc(C(F)(F)F)nc3)cc1)C2
value_observed: 1.9
--
compound: Cn1nc(-c2ccc(OC(F)(F)F)cc2)cc1CO[C@@H]1COc2nc([N+](=O)[O-])cn2C1
value_observed: 4.7
--
compound: O=[N+]([O-])c1cn2c(n1)OC[C@@H](OCc1ccc(C#Cc3ccc(OC(F)(F)F)cc3)cn1)C2
value_observed: 2.5
--
compound: O=[N+]([O-])c1cn2c(n1)OC[C@@H](OCc1ccc(-c3ccc(OC(F)(F)F)cc3)cc1F)C2
value_observed: 2.7
--
compound: O=[N+]([O-])c1cn2c(n1)OC[C@@H](OCc1ccc(-c3ccc(C(F)(F)F)cn3)cc1F)C2
value_observed: 16

###

# assay_name: In vivo pharmacokinetics in mice;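 further: plasma and lung samples quantified by LC-MS/MS, dosing as a suspension in aqueous carboxymethylcellulose with Tween 80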
# condition_info: CD-1 mice, oral, 40 mg/kg, lung
Each record here notes measured AUC lung.
observable: AUC lung (µg·h/mL)

compound: O=[N+]([O-])c1cn2c(n1)OC[C@@H](OCc1ccc(-c3ccc(F)cc3)nc1)C2 [Compound 5]
output_unit: µg·h/mL
operator: =
value_observed: 136

compound: O=[N+]([O-])c1cn2c(n1)OC[C@@H](OCc1cnc(-c3ccc(OC(F)(F)F)cc3)cn1)C2 [Compound 4]
output_unit: µg·h/mL
operator: >
value_observed: 324

compound: O=[N+]([O-])c1cn2c(n1)OC[C@@H](Oc1ccc(-c3ccc(OC(F)(F)F)cc3)cc1)C2 [Compound 13]
output_unit: µg·h/mL
operator: =
value_observed: 347

compound: O=[N+]([O-])c1cn2c(n1)OC[C@@H](OCc1ccc(-c3ccc(OC(F)(F)F)cc3)cc1)C2 [Compound 3]
output_unit: µg·h/mL
operator: =
value_observed: 218

compound: O=[N+]([O-])c1cn2c(n1)OC[C@@H](OCc1ccc(-c3ccc(OC(F)(F)F)c(Cl)c3)nc1)C2 [Compound 28]
output_unit: µg·h/mL
operator: =
value_observed: 284

compound: Cn1nc(-c2ccc(OC(F)(F)F)cc2)cc1CO[C@@H]1COc2nc([N+](=O)[O-])cn2C1 [Compound 11]
output_unit: µg·h/mL
operator: =
value_observed: 92.4

compound: O=[N+]([O-])c1cn2c(n1)OC[C@@H](OCc1cnc(-c3ccc(OC(F)(F)F)cc3)nc1)C2 [Compound 16]
output_unit: µg·h/mL
operator: =
value_observed: 131

compound: O=[N+]([O-])c1cn2c(n1)OC[C@@H](OCc1ccc(-c3ccc(C(F)(F)F)cn3)cc1)C2 [Compound 8]
output_unit: µg·h/mL
operator: =
value_observed: 67.3

compound: O=[N+]([O-])c1cn2c(n1)OC[C@@H](OCc1ccc(-c3ccc(OC(F)(F)F)c(F)c3)cc1)C2 [Compound 2]
output_unit: µg·h/mL
operator: >
value_observed: 513

compound: O=[N+]([O-])c1cn2c(n1)OC[C@@H](OCc1ccc(-c3ccc(OC(F)(F)F)cc3)nc1)C2 [Compound 6]
output_unit: µg·h/mL
operator: =
value_observed: 81

compound: O=[N+]([O-])c1cn2c(n1)OC[C@@H](OCc1ccn(-c3ccc(OC(F)(F)F)cc3)n1)C2 [Compound 10]
output_unit: µg·h/mL
operator: =
value_observed: 31.5

compound: O=[N+]([O-])c1cn2c(n1)OC[C@@H](OCc1ccc(-c3ccc(C(F)(F)F)nc3)cc1)C2 [Compound 9]
output_unit: µg·h/mL
operator: =
value_observed: 414

compound: O=C(O[C@@H]1COc2nc([N+](=O)[O-])cn2C1)N1CCN(c2ccc(OC(F)(F)F)cc2)CC1 [Compound 20]
output_unit: µg·h/mL
operator: =
value_observed: 169

compound: O=[N+]([O-])c1cn2c(n1)OC[C@@H](OCc1ccc(-c3ccc(C(F)(F)F)cn3)cc1F)C2 [Compound 14]
output_unit: µg·h/mL
operator: =
value_observed: 148

compound: O=[N+]([O-])c1cn2c(n1)OC[C@@H](OCc1ccc(-c3ccc(OC(F)(F)F)c(F)c3)cn1)C2 [Compound 22]
output_unit: µg·h/mL
operator: =
value_observed: 155

compound: O=[N+]([O-])c1cn2c(n1)OC[C@@H](OCc1ccc(C#Cc3ccc(OC(F)(F)F)cc3)cn1)C2 [Compound 18]
output_unit: µg·h/mL
operator: =
value_observed: 235

compound: O=[N+]([O-])c1cn2c(n1)OC[C@@H](OCC#Cc1ccc(-c3ccc(OC(F)(F)F)cc3)cc1)C2 [Compound 30]
output_unit: µg·h/mL
operator: =
value_observed: 13.6

compound: O=[N+]([O-])c1cn2c(n1)OC[C@@H](OCc1ccc(-c3ccc(OC(F)(F)F)cc3)nn1)C2 [Compound 24]
output_unit: µg·h/mL
operator: =
value_observed: 93.9

compound: O=[N+]([O-])c1cn2c(n1)OC[C@@H](OCc1ccc(-c3ccc(OC(F)(F)F)cc3)cn1)C2 [Compound 7]
output_unit: µg·h/mL
operator: =
value_observed: 427

compound: O=[N+]([O-])c1cn2c(n1)OC[C@@H](OCc1ccc(-c3ccc(OC(F)(F)F)c(F)c3)nc1)C2 [Compound 21]
output_unit: µg·h/mL
operator: =
value_observed: 251

compound: O=[N+]([O-])c1cn2c(n1)OC[C@@H](OCc1ccc(-c3ccc(OC(F)(F)F)cc3)cc1F)C2 [Compound 12]
output_unit: µg·h/mL
operator: =
value_observed: 549

compound: O=[N+]([O-])c1cn2c(n1)OC[C@@H](OCc1ccc(OC(F)(F)F)cc1)C2 [PA-824, reference compound]
output_unit: µg·h/mL
operator: =
value_observed: 296

compound: O=[N+]([O-])c1cn2c(n1)OC[C@@H](OCc1ccc(-c3ccc(OC(F)(F)F)cc3Cl)cc1)C2 [Compound 1]
output_unit: µg·h/mL
operator: =
value_observed: 3363

compound: O=[N+]([O-])c1cn2c(n1)OC[C@@H](OCc1ccc(-c3ccc(C(F)(F)F)nc3)cc1F)C2 [Compound 23]
output_unit: µg·h/mL
operator: =
value_observed: 55.4
